# EXPERIMENTAL SYSTEM: T1, BMPRIa receptor-Fc fusion (UniProt P36894 24-152, limits assumed)
# T1 construct: also called ALK-3
# T1 sequence (P36894 24-152 limits assumed): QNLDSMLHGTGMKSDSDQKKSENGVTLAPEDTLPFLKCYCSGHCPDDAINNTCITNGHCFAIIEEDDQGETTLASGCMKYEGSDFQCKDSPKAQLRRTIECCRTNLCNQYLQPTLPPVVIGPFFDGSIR
# TEST: ELISA-like plate assay, captured BMP-7 from conditioned media, receptor-Fc detection
# BMPRIa binding (relative to wild type = 1.0) listing for each entry below

Solved cases (3 shown):
Request: Tell me the measured BMPRIa binding (relative to wild type = 1.0) of BMP-7 variant K39N (ligand, In conditioned media; numbering on mature BMP-7) STGGKQRSQNRSKTPKNQEALRMASVAENSSSDQRQACNKHELYVSFRDLGWQDWIIAPEGYAAYYCEGECAFPLNSYMNATNHAIVQTLVHFINPETVPKPCCAPTQLNAISVLYFDDSSNVILKKYRNMVVRACGCH , please.
Response: 1.98 relative to wild type

Request: So what's the measured BMPRIa binding (relative to wild type = 1.0) for this one? BMP-7 variant Y78T (ligand, In conditioned media; numbering on mature BMP-7) STGGKQRSQNRSKTPKNQEALRMASVAENSSSDQRQACKKHELYVSFRDLGWQDWIIAPEGYAAYYCEGECAFPLNSTMNATNHAIVQTLVHFINPETVPKPCCAPTQLNAISVLYFDDSSNVILKKYRNMVVRACGCH
Response: 0.87 relative to wild type

Request: Need BMPRIa binding (relative to wild type = 1.0) of BMP-7 variant Q53G (ligand, In conditioned media; numbering on mature BMP-7) STGGKQRSQNRSKTPKNQEALRMASVAENSSSDQRQACKKHELYVSFRDLGWGDWIIAPEGYAAYYCEGECAFPLNSYMNATNHAIVQTLVHFINPETVPKPCCAPTQLNAISVLYFDDSSNVILKKYRNMVVRACGCH , thanks.
Response: 3.7 relative to wild type

Now examine the next entry.
Request: Please report the recorded BMPRIa binding (relative to wild type = 1.0) for BMP-7 variant R129K (ligand, In conditioned media; numbering on mature BMP-7) STGGKQRSQNRSKTPKNQEALRMASVAENSSSDQRQACKKHELYVSFRDLGWQDWIIAPEGYAAYYCEGECAFPLNSYMNATNHAIVQTLVHFINPETVPKPCCAPTQLNAISVLYFDDSSNVILKKYKNMVVRACGCH .
Response: 0.69 relative to wild type
